tested on: Plasmodium berghei; assay: Screen against P. berghei liver stage (PbLuc), transformed with Luciferase, at 10uM; assay type: functional, HepG2; conditions: tested at 10 uM
In all, about 69,000 compounds went through this assay and about 8,600 (12%) showed an effect of 50% or more. The full list was thinned out, with strong results kept by preference.
Param label: returns Yes when INHIBITION < 50%, returns No otherwise, including exact equality.

Reference set (8 entries):
Molecule | Classification
COCC1CN(Cc2ccc(OC)cc2)Cc2nn(C)cc21 (stereo not drawn) | No
CCOc1ncnc2c1CCN(Cc1csc(C)n1)CC2 | Yes
Cc1cccc(CN2CCc3ncnc(-c4ccsc4)c3CC2)n1 | No
Cc1cc2[nH]c(O)nc2cc1NCc1ccc(F)cc1 | Yes
CC(C)OCc1ncn2c1CN(CCO)CCC2 | Yes
COCC1CN(Cc2ccccn2)Cc2nn(C)cc21 (stereo not drawn) | No
CC(CNC(=O)CCc1ccco1)N1CCc2sccc2C1 (stereo not drawn) | Yes
COCC1CN(Cc2ccccn2)Cc2cn(C)nc21 (stereo not drawn) | Yes

is_below(INHIBITION, 50%) for `Cc1cc(N2CCN(CC(=O)N(C)C)CC2)nc(-c2ccncc2)n1` ?
Yes

is_below(INHIBITION, 50%) for `Cc1nc(CN2CCc3ncnc(-c4ccncc4)c3CC2)cs1` ?
Yes

is_below(INHIBITION, 50%) for `CC(C)OCc1ncn2c1CN(Cc1nccs1)CCC2` ?
Yes

is_below(INHIBITION, 50%) for COCC1CN(Cc2ccc(F)cc2)Cc2nn(C)cc21 (stereo not drawn) ?
Yes

is_below(INHIBITION, 50%) for `CC(C)OCc1ncn2c1CN(Cc1cnn(C)c1)CCC2` ?
Yes

----------
test system: Plasmodium berghei; assay: Screen against P. berghei liver stage (PbLuc), transformed with Luciferase, at 10uM; type: functional, HepG2; conditions: tested at 10 uM
In all, about 69,000 compounds went through this assay and about 8,600 (12%) showed an effect of 50% or more. This excerpt belongs to a sample that is enriched for strong results.
Parameter INHIBITION: see the listing below.
Lab book: enter the figure in %, no units written.

Below are worked cases with known answers.
Compound | Readout | Measured Number
CCn1c(CC2CCN(S(=O)(=O)Cc3ccccc3)CC2)nn(C)c1=O | INHIBITION | -28.1
CNc1nc(C)cc(NCc2cc(C)cc3c(C)c(C)[nH]c23)n1 | INHIBITION | 87.9
CC(C)NC(=O)N1CCN(S(C)(=O)=O)CC2(CNC(=O)C2)C1 (configuration not stated) | INHIBITION | -3.52
Cc1[nH]c2c(C)ccc(C)c2c1CC(=O)NCCNc1cccnc1 | INHIBITION | -17.2
CNc1cc(C)nc(NCc2cc(C)cc3c(C)c(C)[nH]c23)n1 | INHIBITION | 76.7

Fill in the blank: the reported INHIBITION of `O=C(Cc1ccc(-n2cnnn2)cc1)Nc1cnn(CC(F)F)c1` is ____.
42.6

Fill in the blank: the reported INHIBITION of `CC(C)c1cc(CN(C)C(=O)CN2CCCCC2=O)no1` is ____.
15.4

----------
tested on: Plasmodium berghei; assay: Screen against P. berghei liver stage (PbLuc), transformed with Luciferase, at 10uM; format: functional, HepG2; details: tested at 10 uM
Out of some 69,000 compounds screened, about 8,600 (12%) showed an effect of 50% or more. What follows is part of a selection rich in strong results, with near analogues and random picks from the rest.
Readout: INHIBITION (%)
Lab book: enter the figure in %, no units written.

Below are worked cases with known answers.
Molecule | Endpoint Unit | INHIBITION
Cc1noc([C@H]2C[C@@H]3CCN(C(=O)C4CCOCC4)C[C@H]3O2)n1 | % | 41.5
Cn1cc(CN2CCCC23CCN(C(=O)c2cccs2)CC3)cn1 | % | 28.4
O=C(c1cocn1)N1CCC[C@]2(C[C@@H](OCC3CC3)CO2)C1 | % | -2.72

Fill in the blank: the reported INHIBITION of `Cc1nc(N(C)C)nc(C)c1NC(=O)c1ccccc1F` is ____.
64.3

Fill in the blank: the reported INHIBITION of `Cc1ccc(Cn2cc(Br)c(NS(C)(=O)=O)n2)cc1` is ____.
19.575

Fill in the blank: the reported INHIBITION of Cc1nccn1C1CCCN(C(=O)c2cnn(C)c2C2CC2)C1 (stereo unspecified) is ____.
-3.58

Fill in the blank: the reported INHIBITION of `COCCN1CCCc2sc(C(=O)N3CCCN(C)CC3)nc21` is ____.
5.36

Fill in the blank: the reported INHIBITION of CCC(C(=O)Nc1ccc(-c2nc(C)n[nH]2)cc1)N1CCCC1=O (stereo unspecified) is ____.
59.1

Fill in the blank: the reported INHIBITION of Cc1csc(C2CCCN(C(=O)c3c(C)nn4cccnc34)C2)n1 (stereo unspecified) is ____.
-2.53

Fill in the blank: the reported INHIBITION of `Cc1cccc(C(=O)N2CCC[C@]3(C[C@@H](OCC4CC4)CO3)C2)n1` is ____.
52

Fill in the blank: the reported INHIBITION of `Cc1ccc(N2CC[C@H]3OCC[C@@]3(C(=O)N(C)C)C2)nn1` is ____.
24.3

Fill in the blank: the reported INHIBITION of CN(Cc1nc2ccccc2o1)CC1CCCN1c1cccnn1 (stereo unspecified) is ____.
55

Fill in the blank: the reported INHIBITION of `Cc1cc(C(=O)N2CCC[C@]3(C[C@H](OCC4CC4)CO3)C2)no1` is ____.
17.1

Fill in the blank: the reported INHIBITION of CN(Cc1nc(N)c2ccccc2n1)CC1CCCN1c1cccnn1 (stereo unspecified) is ____.
11.8

Fill in the blank: the reported INHIBITION of `Cc1nc(N(C)C)nc(C)c1NC(=O)c1ccco1` is ____.
-2.74

Fill in the blank: the reported INHIBITION of CN(C)Cc1cn(-c2ccccc2C(=O)NCCC2CCCN2C)cn1 (stereo unspecified) is ____.
10

Fill in the blank: the reported INHIBITION of `O=C(O)c1ccnc(-c2ccnc(N3CCC(F)(F)CC3)n2)c1` is ____.
30.3

Fill in the blank: the reported INHIBITION of `Cc1n[nH]c(-c2ccc(NC(=O)C(C)(C)N3CCN(C)CC3)cc2)n1` is ____.
-25.6

Fill in the blank: the reported INHIBITION of c1cn2c(n1)CN(C1CCOCC1)CC(CN1CCCC1)C2 (stereo unspecified) is ____.
29

Fill in the blank: the reported INHIBITION of `Cn1cc(CN2CC[C@H]3O[C@H](C(=O)NCc4ccco4)CC[C@H]32)cn1` is ____.
-20.6

Fill in the blank: the reported INHIBITION of `CCN(C)c1ncnc2c1CCN(C(=O)COC)CC2` is ____.
-12.1

Fill in the blank: the reported INHIBITION of `O=C(c1sccc1C1CC1)N1CCN(CC(F)(F)F)CC1` is ____.
27.6

Fill in the blank: the reported INHIBITION of `CS(=O)(=O)N1CCOCC2(CCN(C(=O)c3ccncc3)CC2)C1` is ____.
19.5

Fill in the blank: the reported INHIBITION of Cc1nn(-c2ccccc2)nc1C(=O)N1CCCC(n2cccn2)C1 (stereo unspecified) is ____.
17.4

Fill in the blank: the reported INHIBITION of `CC(C)[C@H]1CN(CCCO)C[C@@H]1NC(=O)CCC(F)(F)F` is ____.
20.2
